Hello, the source for this data is patent US8377974B2, in case you need it.

Molecular target: human plasma protein factor Xa (Homo sapiens)
Construct: measure proteolytic activity of the enzyme (factor Xa)
Assay: Factor Xa IC50 determination: cleavage of paranitroanilide substrate S-2765 in 96-well plates
Settings: fXa 1 nM, S-2765 100 μM, Tris buffered saline pH 7.4, room temperature
Text: This example illustrates methods for evaluating the compounds of the invention, along with results obtained for such assays. The in vitro and in vivo Factor Xa isoform activities of the inventive compounds can be determined by various procedures known in the art, such as a test for their ability to inhibit the activity of the Factor Xa isoform. […] The IC50 value is the concentration (in nM) of the compound required to provide 50% inhibition of Factor Xa isoform. […]
measurement-label: IC50

Q: What value of IC50 has been recorded for this entry: CCCN(C)C(=N)c1ccc(-c2cc(CN(C)C(=O)c3ccc(Cl)s3)on2)cc1
A: ≥ 500 nM

Q: Field entry: CCCN(C)C(=N)c1ccc(-c2nc(CNC(=O)c3ccc(Cl)s3)co2)cc1
A: 100 to 500 nM

Q: Field entry: O=C(NCc1cn(-c2ccc(N3CCOCC3=O)nc2)nn1)c1ccc(Cl)s1
A: ≤ 100 nM

Q: Field entry: CCOC(=O)C1CCN(C(=N)c2ccc(C3=NOC(CNC(=O)c4ccc(Cl)s4)C3)cc2)CC1 (stereo not drawn)
A: 100 to 500 nM

Q: Field entry: Cc1ccc(C2=NOC(C)(CNC(=O)c3ccc(Cl)s3)C2)cc1 (stereo not drawn)
A: ≥ 500 nM

Q: Field entry: CN(C)C(=N)c1ccc(-c2cc(CNC(=O)c3ccc(Cl)s3)ccc2F)cc1
A: ≤ 100 nM

----------
Biological target: human plasma protein factor Xa (Homo sapiens, UniProt P00742)
Construct: measure proteolytic activity of the enzyme (factor Xa)
Sequence (P00742 235-488 limits assumed): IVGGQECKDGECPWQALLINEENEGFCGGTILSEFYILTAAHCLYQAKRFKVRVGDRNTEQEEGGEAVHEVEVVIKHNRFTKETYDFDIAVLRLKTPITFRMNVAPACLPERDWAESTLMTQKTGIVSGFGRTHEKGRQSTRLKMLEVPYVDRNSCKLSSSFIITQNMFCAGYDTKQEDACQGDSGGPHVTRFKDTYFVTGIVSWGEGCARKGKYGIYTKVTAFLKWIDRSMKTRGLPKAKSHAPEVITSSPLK
Sequence (P00742 41-179 partner limits assumed): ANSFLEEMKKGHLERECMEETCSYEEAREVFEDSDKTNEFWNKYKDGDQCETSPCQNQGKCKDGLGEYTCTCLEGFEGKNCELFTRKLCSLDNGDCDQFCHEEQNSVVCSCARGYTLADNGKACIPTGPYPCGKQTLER
Experiment: Factor Xa IC50 determination: cleavage of paranitroanilide substrate S-2765 in 96-well plates
Conditions: fXa 1 nM, S-2765 100 μM, Tris buffered saline pH 7.4, room temperature
pIC50: −log10 of the molar value.
measurement-label: pIC50

COc1cc(C(=N)N2CCCCC2)ccc1-c1cc(CNC(=O)c2ccc(Cl)s2)on1    ≥ 7.00

Turning to the following compound.
Q: What value of pIC50 has been recorded for this entry: O=C(NCC1CC(c2ccc(-n3cccc(F)c3=O)cc2)=NO1)c1ccc(Cl)s1 (stereo not shown)
A: ≥ 7.00

----------
Target: human plasma protein factor Xa (Homo sapiens, UniProt P00742)
Construct: measure proteolytic activity of the enzyme (factor Xa)
Experiment: Factor Xa IC50 determination: cleavage of paranitroanilide substrate S-2765 in 96-well plates
Conditions: fXa 1 nM, S-2765 100 μM, Tris buffered saline pH 7.4, room temperature
measurement-label: IC50

N#Cc1ccc(-c2cc(CNC(=O)c3ccc(Cl)s3)on2)cc1    ≤ 100 nM
O=C(NCc1cn(-c2ccc(N3CCCCC3)nc2)nn1)c1ccc(Cl)s1    100 to 500 nM
CN(C)C(=O)c1ccc(C2=NOC(CNC(=O)c3ccc(Cl)s3)C2)cc1 (centres unmarked)    ≤ 100 nM

Q: Find IC50 (human plasma protein factor Xa (Homo sapiens, UniProt P00742)) for the entry O=C(NCc1cc(-c2ccc(-n3ccccc3=O)cc2)no1)c1ccc(Cl)s1
A: ≤ 100 nM

Q: Field entry: O=C(NCC1CC(c2ccc(NCc3ccccc3)cc2)=NO1)c1ccc(Cl)s1 (centres unmarked)
A: ≥ 500 nM

Q: Field entry: CN(C)Cc1ccc(-c2cccc(C3=NOC(CNC(=O)c4ccc(Cl)s4)C3)c2)cc1 (centres unmarked)
A: ≥ 500 nM

Q: Field entry: Cn1ccc(Nc2ccc(C3=NOC(CNC(=O)c4ccc(Cl)s4)C3)cc2)n1 (centres unmarked)
A: 100 to 500 nM

Q: Field entry: O=C(NCc1cn(-c2ccc(-n3ccccc3=O)cn2)nn1)c1ccc(Cl)s1
A: ≤ 100 nM

Q: Field entry: O=C(O)c1ccc(-c2cc(CNC(=O)c3ccc(Cl)s3)on2)cc1
A: ≥ 500 nM

Q: Field entry: Cc1ccc(-c2cc(CNC(=O)c3ccc(Cl)s3)on2)cc1
A: ≥ 500 nM

Q: Field entry: COCCN(C)C(=N)c1ccc(-n2cc(CNC(=O)c3ccc(Cl)s3)nn2)cc1
A: ≤ 100 nM

Q: Field entry: CN(C)C(=N)c1ccc(-c2cncc(CNC(=O)c3ccc(Cl)s3)c2)cc1
A: ≤ 100 nM

Q: Field entry: COc1ccc(=O)n(-c2ccc(-n3cc(CNC(=O)c4ccc(Cl)s4)nn3)cc2)c1
A: ≤ 100 nM

Q: Field entry: CN1CCN=C1c1ccc(-c2cc(CNC(=O)c3ccc(Cl)s3)on2)cc1
A: ≤ 100 nM

Q: Field entry: CN(C)Cc1ccccc1-c1cccc(-c2cc(CNC(=O)c3ccc(Cl)s3)on2)c1
A: ≥ 500 nM

Q: Field entry: O=C(NCc1cc(C2CCN(Cc3ccccc3)CC2)no1)c1ccc(Cl)s1
A: ≥ 500 nM

Q: Field entry: N=C(c1ccc(-c2csc(CNC(=O)c3ccc(Cl)s3)n2)cc1)N1CCCC1
A: ≥ 500 nM

Q: Field entry: N=C(c1ccc(-c2nc(CNC(=O)c3ccc(Cl)s3)co2)cc1)N1CCCC1
A: ≤ 100 nM

Q: Field entry: N=C(c1ccc(-c2cc(CNC(=O)c3ccc(Cl)s3)ccc2F)cc1)N1CCCC1
A: ≤ 100 nM

Q: Field entry: O=C(NCC1CC(c2ccc(N3CCCC3=O)cc2)=NO1)c1ccc(Cl)s1 (centres unmarked)
A: ≤ 100 nM

Q: Field entry: CN1CCN=C1c1ccc(-n2cnc(CNC(=O)c3ccc(Cl)s3)c2)cc1
A: ≤ 100 nM

Q: Field entry: N=C(c1ccccc1)N1CCC(c2cc(CNC(=O)c3ccc(Cl)s3)on2)CC1
A: ≥ 500 nM

Q: Field entry: CN1CCN=C1c1ccc(-c2cc(CNC(=O)c3ccc(Cl)s3)no2)cc1
A: ≤ 100 nM
